# Tested on: UACC-257
# method_notes: NCI tumour cell line growth inhibition, 48 h
Active and inactive are the calls of the source. Rule as the data show it: active = GI50 up to about 1.1 µM and inactive = higher.
Outcomes: y (active), n (inactive)

1) COc1cccc(CC(C)N)c1 (stereo not given)	n
2) Cn1c(=O)c2nc(CCNC(=O)c3ccccc3)[nH]c2n(C)c1=O	n
3) CC(=O)O[C@H]1C(=O)[C@@]2(C)[C@H]([C@H](OC(=O)c3ccco3)[C@]3(O)C[C@H](OC(=O)[C@H](O)[C@@H](NC(=O)c4ccccc4)c4ccccc4)C(C)=C1C3(C)C)[C@]1(OC(C)=O)CO[C@@H]1C[C@@H]2O	y
4) CC(=O)O[C@H]1C(=O)[C@@]2(C)C(C(OC(=O)c3ccccc3)[C@]3(O)CC(OC(=O)C(O)C(NC(=O)c4ccccc4)c4ccc(C)cc4)C(C)=C1C3(C)C)[C@]1(OC(C)=O)CO[C@@H]1C[C@@H]2O (stereo not given in full)	y
5) Cc1sc(Nc2ccccc2[N+](=O)[O-])c(C#N)c1C	n
6) N#Cc1cc([N+](=O)[O-])ccc1NC(=O)/C(=N/N)C(C(=O)c1ccc(Cl)c(Cl)c1)C1OC(=O)c2ccccc21 (stereo not given)	n
7) O=C1C2ON3c4ccccc4C(=O)C3(c3ccccc3)C2C(=O)N1c1ccccc1 (stereo not given)	n
8) COc1cc2c(/C=C3/C(=O)Nc4cc(C)c(O)cc43)c(Cl)[nH]c2cc1C	n
9) CCOC(=O)c1cccc(NC(=O)CCl)c1	n
10) COC(=O)C1=C(C=O)C2C=CC1C2 (stereo not given)	n
11) N#Cc1c(N)oc(-c2ccc([N+](=O)[O-])cc2)c1C#N	n
12) O=C(NC1CCCC1=O)c1ccccc1 (stereo not given)	n
13) COc1ccc(O)c(C#N)c1C#N	n
14) CC(=O)NS(=O)(=O)c1ccc(NC(=O)c2c3ccccc3nc3ccccc23)cc1	n
15) C=CCn1c(=O)ccn(COCCO)c1=O	n
16) N#Cc1ccc(/N=C(/NCC(=O)O)Nc2ccc3ccccc3c2)cc1	n
17) COc1ccc(N2C(=O)C3c4[nH]c5ccccc5c4C4c5ccccc5CC4C3C2=O)cc1 (stereo not given)	n
18) Nc1nc(I)nc2c1ncn2C1OC(COS(N)(=O)=O)C(O)C1O (stereo not given)	y
19) Cc1cc2nnn(C3CCCCO3)c2cc1C (stereo not given)	n
20) O=C(Nc1ccccc1)n1[nH]c(=O)n(-c2ccccc2)c1=O	n

----------
# System: A549
# method_notes: NCI tumour cell line growth inhibition, 48 h
Calls of active or inactive are those of the source. No stated cut-off is given here; in the data, active = GI50 up to about 1.1 µM and inactive = higher.
// values below are reported GI50
measure_name: GI50

1) OC[C@H]1O[C@@H]2O[C@@](COCc3ccccc3)([C@H](OCc3ccccc3)[C@H]2O)[C@@H]1OCc1ccccc1	14.7 µM (inactive)
2) CN1CCc2c(sc3ncn(Nc4ccc(Cl)cc4)c(=N)c23)C1	> 100 µM (inactive)
3) O=C1CCC[C@@H]2NC[C@@H](c3ccc4c(c3)OCO4)[C@H]12	> 25 µM (inactive)
4) O=C1NC(=O)C2C1C1C=C3c4ccccc4N(c4ccccc4)C32[C@H]2C(=O)NC(=O)[C@@H]12 (some centres undefined)	> 100 µM (inactive)
5) CCOC(=O)c1cc2c([N+](=O)[O-])c(NC(C)=O)ccc2s1	50.2 µM (inactive)
6) CCC(=O)O[C@H]1CC[C@H]2[C@@H]3CCC4=C/C(=N/NC(=O)c5cccc6c(=O)c7ccccc7[nH]c56)CC[C@]4(C)[C@H]3CC[C@]12C	> 25 µM (inactive)
7) C=CCN1C(=O)/C(=C/c2ccc(OC)cc2)NC1=S	34.8 µM (inactive)
8) CCOc1ccc2[nH]c3c(C)c4cc[n+](C)cc4c(C)c3c2c1	1.18 µM (inactive)
9) CC1CC(NC2CCCCC2)=Nc2ccccc2N1Cc1ccccc1 (centres undefined)	4.43 µM (inactive)
